SYSTEM: IGFR-1 (Homo sapiens, UniProt P08069)
Construct: Kinases are expressed as either kinase domains or full length constructs; made in house
Sequence (P08069 31-1367): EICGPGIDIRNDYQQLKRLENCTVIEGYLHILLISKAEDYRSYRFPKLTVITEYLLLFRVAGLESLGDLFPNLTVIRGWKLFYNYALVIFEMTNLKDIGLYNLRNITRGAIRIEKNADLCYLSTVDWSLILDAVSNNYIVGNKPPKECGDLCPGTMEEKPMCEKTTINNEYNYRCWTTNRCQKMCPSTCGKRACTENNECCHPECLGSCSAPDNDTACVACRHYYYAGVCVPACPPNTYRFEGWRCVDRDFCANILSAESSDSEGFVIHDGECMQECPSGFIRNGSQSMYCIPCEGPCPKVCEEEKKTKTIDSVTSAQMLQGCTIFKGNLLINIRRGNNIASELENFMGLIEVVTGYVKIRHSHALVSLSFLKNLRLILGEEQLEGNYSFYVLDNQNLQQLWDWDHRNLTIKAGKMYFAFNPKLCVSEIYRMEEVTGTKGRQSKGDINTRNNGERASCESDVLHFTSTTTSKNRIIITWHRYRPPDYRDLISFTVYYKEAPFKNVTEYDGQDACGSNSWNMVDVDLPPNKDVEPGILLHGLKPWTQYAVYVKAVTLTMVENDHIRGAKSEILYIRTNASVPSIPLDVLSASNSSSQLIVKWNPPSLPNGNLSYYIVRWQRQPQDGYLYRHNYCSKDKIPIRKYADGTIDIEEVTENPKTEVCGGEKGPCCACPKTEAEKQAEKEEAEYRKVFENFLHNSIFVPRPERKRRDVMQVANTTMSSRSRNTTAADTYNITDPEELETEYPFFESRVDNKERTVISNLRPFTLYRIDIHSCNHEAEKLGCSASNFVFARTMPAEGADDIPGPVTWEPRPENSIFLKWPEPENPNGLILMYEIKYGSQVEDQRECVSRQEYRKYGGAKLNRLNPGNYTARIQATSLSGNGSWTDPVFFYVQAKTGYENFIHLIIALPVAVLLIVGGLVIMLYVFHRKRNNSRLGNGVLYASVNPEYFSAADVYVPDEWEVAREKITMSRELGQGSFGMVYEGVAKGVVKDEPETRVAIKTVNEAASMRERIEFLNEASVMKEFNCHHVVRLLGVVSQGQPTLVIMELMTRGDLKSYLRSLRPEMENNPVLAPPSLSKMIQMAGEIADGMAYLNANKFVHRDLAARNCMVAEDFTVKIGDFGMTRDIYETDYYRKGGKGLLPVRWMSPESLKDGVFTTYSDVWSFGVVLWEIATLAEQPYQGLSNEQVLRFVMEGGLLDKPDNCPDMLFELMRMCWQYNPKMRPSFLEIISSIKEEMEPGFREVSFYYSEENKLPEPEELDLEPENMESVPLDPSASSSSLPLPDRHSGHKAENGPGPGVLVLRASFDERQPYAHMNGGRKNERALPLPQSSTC
MEASUREMENT_PROTOCOL: Kinase inhibition assay (33P transfer), IGFR-1
Format: biochemical
CONDITION_DETAILS: Table 2, kinase inhibition class
pIC50: −log10 of the molar value.
Recorded pIC50 values for a group of compounds are listed next.

Here's what some known entries look like.
                               smiles_input                                 system  readout_kind      observed
0  COc1ccc2c(c1)c(CCN(C)C)cn2-c1ncnc(Nc2cc(OC)c(OC)c(OC)c2)n1  IGFR-1 (Homo sapiens, UniProt P08069)         pIC50        < 5.03
1  COc1ccc(N(C)c2ncnc(Nc3cc(OC)c(OC)c(OC)c3)n2)cc1  IGFR-1 (Homo sapiens, UniProt P08069)         pIC50  5.06 to 5.22

Form field, pIC50 with IGFR-1 (Homo sapiens, UniProt P08069), item "COc1cc(Nc2ncnc(Nc3c(C)n(C)n(-c4ccccc4)c3=O)n2)cc(OC)c1OC" : < 5.01

Form field, pIC50 with IGFR-1 (Homo sapiens, UniProt P08069), item "COc1cc(Nc2ncnc(Nc3ccc(-c4ccccc4)cc3)n2)cc(OC)c1OC" : 5.09 to 5.25

Form field, pIC50 with IGFR-1 (Homo sapiens, UniProt P08069), item "O=[N+]([O-])c1cccc(Nc2ncnc(-c3cccs3)n2)c1" : < 4.82

Form field, pIC50 with IGFR-1 (Homo sapiens, UniProt P08069), item "COc1cc(Nc2ncnc(Nc3cc(-c4ccc(Cl)cc4)n[nH]3)n2)cc(OC)c1OC" : > 6.05

Form field, pIC50 with IGFR-1 (Homo sapiens, UniProt P08069), item "COc1ccc2c(c1)c(CCNC(C)=O)cn2-c1ncnc(Nc2cc(OC)c(OC)c(OC)c2)n1" : < 5.04

Form field, pIC50 with IGFR-1 (Homo sapiens, UniProt P08069), item "COc1cc(Nc2ncnc(N3CCCCC3)n2)cc(OC)c1OC" : < 4.89

Form field, pIC50 with IGFR-1 (Homo sapiens, UniProt P08069), item "COc1cc(Nc2ncnc(Nc3cccc(C)c3)n2)cc(OC)c1OC" : > 5.96
